# measurement-target: influenza A virus minigenome (PB2, PB1, PA, NP proteins)
# Assay type: cell-based
# experimental-conditions: read-out: RNP_Hubei B
outcome-measure: IC50

molecule	measurement-target	val
CS(=O)(=O)NCc1ccc(-c2cc(C(N)=O)c(=O)[nH]c2C(F)(F)F)cc1 [Example 49]	influenza A virus minigenome (PB2, PB1, PA, NP proteins)	25 to 50 µM
C[C@H]1COCC(COc2ccc(-c3cc(C(N)=O)c(=O)[nH]c3C(F)(F)F)cc2)N1C (stereo partly shown) [Example 208]	influenza A virus minigenome (PB2, PB1, PA, NP proteins)	5 to 10 µM
NC(=O)c1cc(-c2ccc(OCc3cncc(C4(O)COC4)c3)cc2)c(C(F)(F)F)[nH]c1=O [Example 181]	influenza A virus minigenome (PB2, PB1, PA, NP proteins)	25 to 50 µM
COC1CN(Cc2ccc(-c3cc(C(N)=O)c(=O)[nH]c3C(F)(F)F)cc2)C1 [Example 38]	influenza A virus minigenome (PB2, PB1, PA, NP proteins)	25 to 50 µM
NC(=O)c1cc(-c2ccc(OCc3ccsc3)cc2)c(C(F)(F)F)[nH]c1=O [Example 110]	influenza A virus minigenome (PB2, PB1, PA, NP proteins)	5 to 10 µM
CN(C)C(=O)c1ccc(COc2ccc(-c3cc(C(N)=O)c(=O)[nH]c3C(F)(F)F)cc2)cc1 [Example 60]	influenza A virus minigenome (PB2, PB1, PA, NP proteins)	25 to 50 µM
NC(=O)c1cc(-c2ccc(OCc3nccs3)cc2)c(C(F)(F)F)[nH]c1=O [Example 143]	influenza A virus minigenome (PB2, PB1, PA, NP proteins)	10 to 25 µM
NC(=O)c1cc(-c2ccc(OCC3CCOCC3)cc2)c(C(F)(F)F)[nH]c1=O [Example 56]	influenza A virus minigenome (PB2, PB1, PA, NP proteins)	25 to 50 µM
CC(Oc1ccc(-c2cc(C(N)=O)c(=O)[nH]c2C(F)(F)F)cc1)c1cncnc1 (single isomer, unassigned) [Example 96]	influenza A virus minigenome (PB2, PB1, PA, NP proteins)	25 to 50 µM
CC(Oc1ccc(-c2cc(C(N)=O)c(=O)[nH]c2C(F)(F)F)cc1)c1cncnc1 (single isomer, unassigned) [Example 95]	influenza A virus minigenome (PB2, PB1, PA, NP proteins)	25 to 50 µM
Cn1cc(COc2ccc(-c3cc(C(N)=O)c(=O)[nH]c3C(F)(F)F)cc2)c(C(F)(F)F)n1 [Example 109]	influenza A virus minigenome (PB2, PB1, PA, NP proteins)	25 to 50 µM
NC(=O)c1cc(-c2ccc(OCc3ccc4no[n+]([O-])c4c3)cc2)c(C(F)(F)F)[nH]c1=O [Example 94]	influenza A virus minigenome (PB2, PB1, PA, NP proteins)	25 to 50 µM
NC(=O)c1cc(-c2cccc(N)c2)c(C(F)(F)F)[nH]c1=O [Example 7]	influenza A virus minigenome (PB2, PB1, PA, NP proteins)	25 to 50 µM
NC(=O)c1cc(-c2ccc(OCc3ccn4ccnc4c3)cc2)c(C(F)(F)F)[nH]c1=O [Example 91]	influenza A virus minigenome (PB2, PB1, PA, NP proteins)	25 to 50 µM
COC1CCOC(COc2ccc(-c3cc(C(N)=O)c(=O)[nH]c3C(F)(F)F)cc2)C1 (single isomer, unassigned) [Example 203]	influenza A virus minigenome (PB2, PB1, PA, NP proteins)	25 to 50 µM
NC(=O)c1cc(-c2ccc(C(c3cnco3)N3CCOCC3)cc2)c(C(F)(F)F)[nH]c1=O (stereo not shown) [Example 48]	influenza A virus minigenome (PB2, PB1, PA, NP proteins)	25 to 50 µM
